- target: human recombinant HDAC6 (Homo sapiens, UniProt Q9UBN7)
- Sequence (Q9UBN7 whole entry): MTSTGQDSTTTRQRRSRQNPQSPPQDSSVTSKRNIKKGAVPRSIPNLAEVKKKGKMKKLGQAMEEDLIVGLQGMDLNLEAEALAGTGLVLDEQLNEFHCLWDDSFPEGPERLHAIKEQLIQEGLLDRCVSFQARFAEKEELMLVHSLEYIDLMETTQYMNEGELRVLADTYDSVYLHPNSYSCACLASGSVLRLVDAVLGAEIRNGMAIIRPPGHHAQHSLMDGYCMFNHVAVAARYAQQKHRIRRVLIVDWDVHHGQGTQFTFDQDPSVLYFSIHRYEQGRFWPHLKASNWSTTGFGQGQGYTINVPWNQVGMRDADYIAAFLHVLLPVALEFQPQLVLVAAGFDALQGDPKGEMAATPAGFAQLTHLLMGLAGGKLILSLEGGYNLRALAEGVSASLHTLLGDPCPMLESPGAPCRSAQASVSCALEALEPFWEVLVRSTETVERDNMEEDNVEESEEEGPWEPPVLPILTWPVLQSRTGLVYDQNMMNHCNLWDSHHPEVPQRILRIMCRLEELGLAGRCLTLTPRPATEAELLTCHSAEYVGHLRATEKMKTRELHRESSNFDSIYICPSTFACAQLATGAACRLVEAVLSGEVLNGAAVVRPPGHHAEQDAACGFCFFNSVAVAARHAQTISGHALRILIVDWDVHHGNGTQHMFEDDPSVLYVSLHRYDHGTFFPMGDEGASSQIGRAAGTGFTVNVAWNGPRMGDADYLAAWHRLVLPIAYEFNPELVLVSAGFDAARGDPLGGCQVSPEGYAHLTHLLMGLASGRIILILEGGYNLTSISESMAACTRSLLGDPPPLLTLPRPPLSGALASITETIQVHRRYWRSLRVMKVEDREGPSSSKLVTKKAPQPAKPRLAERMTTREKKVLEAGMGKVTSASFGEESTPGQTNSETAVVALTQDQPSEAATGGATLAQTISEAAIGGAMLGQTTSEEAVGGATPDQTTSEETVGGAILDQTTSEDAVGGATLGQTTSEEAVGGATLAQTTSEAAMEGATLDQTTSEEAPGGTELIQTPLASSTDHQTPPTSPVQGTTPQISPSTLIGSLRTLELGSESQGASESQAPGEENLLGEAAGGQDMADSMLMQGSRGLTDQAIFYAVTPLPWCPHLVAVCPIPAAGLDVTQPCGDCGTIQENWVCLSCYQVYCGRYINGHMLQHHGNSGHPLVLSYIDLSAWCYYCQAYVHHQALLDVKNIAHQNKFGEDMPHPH
- Format: biochemical
- measurement-setup: from IC50 in place of Kd, T = 310 K
Reported LE, HDAC6 (ligand efficiency) values for a set of molecules

{"molecule": "O=C(NO)c1ccc(CN2c3cccnc3Sc3cccnc32)cc1 [Compound 7l]", "LE, HDAC6 (ligand efficiency)": "0.45 (kcal/mol)/non-H-Atom"}
{"molecule": "O=C(NO)c1ccc(CN2c3ccncc3Sc3ccncc32)cc1 [Compound 7m]", "LE, HDAC6 (ligand efficiency)": "0.46 (kcal/mol)/non-H-Atom"}
{"molecule": "O=C(NO)c1ccc(CN2c3ccccc3Sc3ccc(Cl)cc32)cc1 [Compound 7f]", "LE, HDAC6 (ligand efficiency)": "0.43 (kcal/mol)/non-H-Atom"}
{"molecule": "O=C(NO)c1ccc(CN2c3ccccc3Sc3cc(Cl)nnc32)cc1 [Compound 7q]", "LE, HDAC6 (ligand efficiency)": "0.42 (kcal/mol)/non-H-Atom"}
{"molecule": "O=C(NO)c1ccc(CN2c3ccccc3Sc3cccc(Cl)c32)cc1 [Compound 7c]", "LE, HDAC6 (ligand efficiency)": "0.43 (kcal/mol)/non-H-Atom"}
{"molecule": "O=C(NO)c1ccc(N2c3ccccc3Sc3ccccc32)cc1 [Compound 18]", "LE, HDAC6 (ligand efficiency)": "0.33 (kcal/mol)/non-H-Atom"}
{"molecule": "CCSc1ccc2c(c1)N(Cc1ccc(C(=O)NO)cc1)c1ccccc1S2 [Compound 7h]", "LE, HDAC6 (ligand efficiency)": "0.38 (kcal/mol)/non-H-Atom"}
{"molecule": "COc1ccc2c(c1)N(Cc1ccc(C(=O)NO)cc1)c1ccccc1S2 [Compound 7g]", "LE, HDAC6 (ligand efficiency)": "0.42 (kcal/mol)/non-H-Atom"}
{"molecule": "O=C(NO)c1ccc(CN2c3ccccc3Sc3ccc(C(F)(F)F)cc32)cc1 [Compound 7d]", "LE, HDAC6 (ligand efficiency)": "0.37 (kcal/mol)/non-H-Atom"}
{"molecule": "O=C(NO)c1ccc(CN2c3ccccc3Sc3ccncc32)cc1 [Compound 7j]", "LE, HDAC6 (ligand efficiency)": "0.46 (kcal/mol)/non-H-Atom"}
{"molecule": "O=C(NO)c1ccc(CN2c3ccccc3Sc3nccnc32)cc1 [Compound 7k]", "LE, HDAC6 (ligand efficiency)": "0.44 (kcal/mol)/non-H-Atom"}
{"molecule": "Cc1nc2c(s1)Sc1ccccc1N2Cc1ccc(C(=O)NO)cc1 [Compound 7o]", "LE, HDAC6 (ligand efficiency)": "0.42 (kcal/mol)/non-H-Atom"}
{"molecule": "CN1CCC2=C(C1)N(Cc1ccc(C(=O)NO)cc1)c1ccccc1S2 [Compound 14j]", "LE, HDAC6 (ligand efficiency)": "0.41 (kcal/mol)/non-H-Atom"}
{"molecule": "O=C(NO)c1ccc(CN2c3ccccc3[S+]([O-])c3ccccc32)cc1 [Compound 7e]", "LE, HDAC6 (ligand efficiency)": "0.39 (kcal/mol)/non-H-Atom"}
{"molecule": "O=C(NO)c1ccc(CCN2c3ccccc3Sc3ccccc32)cc1 [Compound 22]", "LE, HDAC6 (ligand efficiency)": "0.37 (kcal/mol)/non-H-Atom"}
{"molecule": "O=C(NO)c1ccc(CN2c3ccccc3Sc3ccnnc32)cc1 [Compound 7p]", "LE, HDAC6 (ligand efficiency)": "0.45 (kcal/mol)/non-H-Atom"}
{"molecule": "O=C(NO)c1ccc(CN2N=C(Cl)C=C3Sc4ccccc4N=C32)cc1 [Compound 10q]", "LE, HDAC6 (ligand efficiency)": "0.38 (kcal/mol)/non-H-Atom"}
{"molecule": "O=C(NO)c1ccc(CN2N=CC=C3Sc4ccccc4N=C32)cc1 [Compound 10p]", "LE, HDAC6 (ligand efficiency)": "0.44 (kcal/mol)/non-H-Atom"}
